Data origin: the supplement of paper PMC9170038

- Test system: MS2 coat protein
- assayExplanation: apparent KD of MS2 coat protein; higher = weaker reporter binding
- assayConditions: Eterna round: R107; input ligand: theophylline 20 uM
# Lookup of reported apparent KD of MS2 coat protein keyed by entry
Just the number in nM, nothing appended.

{"columns": ["sequenceData", "apparent KD of MS2 coat protein, nM"],
 "data": [
  ["CUAUGGAUAAGAAGGAGCGUCGAAAAUGGGUAAACAUGAGGAUCACCCAUGUAAAGGGAACGACAGGUAGGUCGCUUAUUUAUAG [AstromonsSSArgB#7]", 190],
  ["UGUAUGGACUGAAGGAGCGGGUUGAUAACUUGAGGAUCACCCAGGUAAAAGGCGAAAGCCGCCCAGGUAGGUCGCAGUCCAUACU", 54.9],
  ["GGUGGCGUGACGGAUACCAGCCACCACCGCAAGGCCACAUGAGGAUCACCCAUGUUGGGUGGCCCUUGGCAGCUGUCGUGCGGCG [#1 Same State - Theophylline B Attempt #20 (HarryS)]", 324],
  ["AUAACAUGAGGAUCACCCAUGUAAGCUGAAGGAGCGCUGGAAACAGCAGGUAGGUCGCAGCUACCUACCACCUCAUGAGGUAGGU [(M1)-(M2)-(Arg1)-(Arg2)-(A)'-(M)'-(A)''_Design6]", 24.4],
  ["GACUAUAUGAUAUGUCAGAAAUCCUCGAAACGAGGACCGGUACGGCCGCCACUCGAGUGAUAAACAUGAGGAUCACCCAUGUAAA [Tryp A Ex t2]", 28],
  ["UGAGUUAGACAAAAGUCUAGCUCUGGUGAAGGAGCGUCCGAAAGGACAGGUAGGUCGCACCACCUGAGGAUCACCCGGGUUCCUA [ArgAS 13 #OpenEnded #AlternativeMS2]", 544],
  ["ACAUGAGGAUCACCCAUGUACAUAAGGGAAGGAGCGCGGUGAAACGCAGGUAGGUCGCCCAUAAUAACAAACAUUAAAUUCAUGU [LeftA2]", 18.6],
  ["AGCGAUAUGCAUGAUACCAGCUACAUGAGGAUCACCCAUGUACGUCAGUAAUGACUGUGUAGCCCUUGGCAGCAUAGAGCAUGUA [Exclusion - Theophylline B (Freestyle 13)]", 35.4],
  ["GUCUCUGAGAGAAGGAGCGUGAAGACAUGAGGAUCACCCAUGUAGAGGCGCCGAAGGCGUUCGCAGGUAGGUCGCUCUCAGAGAC [#1 Same State - Arginine B Attempt #20 (HarryS)]", 23.8],
  ["ACAUGAGGAUCACCCAUGUAUUCAUCAGAAGGAGCGUGGAAUAACACAGGUAGGUCGCUGAUUAUUUGUUAAAUAAAUUCGUGUA [JR_Nu_SSArginiA_Sub023]", 19.1]
]}

Entry AGUAAUCUAACAGAUACCAGACGGUAUAUAACAUGAGGAUCACCCAUGUCUUGGGUGUACGUCCCUUGGCAGCUGAAAAUGAUAA [JR_SSTheophyB_Sub001] , apparent KD of MS2 coat protein reported as 551

Entry AUAAGUACGUCAGAUACCAGACAGCCAGACUUACAUGAGGAUCACCCAUGUGGAUGGACGGUCCCUUGGCAGCUGGCCGCAAAAG [Isedgeor] , apparent KD of MS2 coat protein reported as 128

Entry GGACUAACUGGAAGGAGCGACGCGCAGAAACUGCAAUUUCCUCCACACGAGGAUCACCCGUGUCAGGUAGGUCGCCAGUUAGUCG [ArgBX 29] , apparent KD of MS2 coat protein reported as 24.7

Entry UGACAGAUAACCGCUGGUGCUCUCGAGUUGCGAGGACCGGUACGGCCGCCACUCGACAACAUGAGGAUCACCCAUGUUGCGGGUC [Lareara] , apparent KD of MS2 coat protein reported as 108

Entry GGCCCGGACUUGGAAUGGGUGUUUCCUUCACGAGGACCGGUACGGCCGCCACUCGAAGACAUGAGGAUCACCCAUGUAGUCGACC [Soleti] , apparent KD of MS2 coat protein reported as 100

Entry CUGGCAGGAUUCUCAGCUGUCAGGGCUGAUACCAGCCACGAAAGUGGCCCUUGGCAGCAGCAAACAUGAGGAUCACCCAUGUAAU [(T)''-(M)'-(T)'-(Theo)-(Ms2)_Design1] , apparent KD of MS2 coat protein reported as 364

Entry ACAUGAGGAUCACCCAUGUAAUAAGGAGAAGGAGCGCGUAAGGACGCAGGUAGGUCGCUCGUGGUCCGGCCGCAAGGCCGGACCA [#1 Same State - Arginine A Attempt #8 (HarryS)] , apparent KD of MS2 coat protein reported as 15.4

* * *

- Tested on: K4 kissing-loop RNA reporter;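 note: bound reporter read as fluorescence of individual clusters on recovered sequencing chips by microscopy, with normalized cluster intensities fitted with a binding model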
- assayExplanation: apparent KD of K4 kissing-loop reporter; higher = weaker reporter binding
- assayConditions: Eterna round: R107; input ligand: none
assayEndpoint: apparent KD of K4 kissing-loop reporter (nM)
Just the number in nM, nothing appended.

{"columns": ["sequenceData", "assayEndpoint", "measurementUnits", "readoutValue"],
 "data": [
  ["AAAUGCUUGUAUUUGAACAAUUCCUUUAGGGAGGAUAUUGGUAAUACAAGAAGGCCCUGAUGGGAGUGAUGUUCCCAUAACGCGG [Exclusion FMN A GF16]", "apparent KD of K4 kissing-loop reporter", "nM", 90.8],
  ["AACCCAUGACUGGAUACCAGACUAUACAUGCUGAGUGAUGUUUAGCGGAGUCAUCUCUCGGUCCCUUGGCAGCCAACGUCACGCG [theeternabot_sameState_KL_Theo_B_33]", "apparent KD of K4 kissing-loop reporter", "nM", 646],
  ["GUAGCACUUGAUAGUGAUGUUAUCAAGGACAAGGAUAUCAUCUCAAUGAGAAGGUGUCCUUGAUAACAGCUACGGGAAUAUCCCA [Omei KL FMN A Exc D v1]", "apparent KD of K4 kissing-loop reporter", "nM", 288],
  ["UGGGAUGUUAAAGGAUAUAGCAAGUGAUAUAAGAAAGUGAGUGAUGUUUAUGUAGGUGAUGAUAUGUUAGAAGGUUAACAAAACG [abcdefgh]", "apparent KD of K4 kissing-loop reporter", "nM", 211],
  ["GGAUAGGACACAGGAUAUGGGCUAGGCAAGAAUAACUUGUCUAGCAAAUCCAUGAGGAGUGAUGUUCCAGAAGGGUGUCCUAUCG [FmnBX 1 C11+G75]", "apparent KD of K4 kissing-loop reporter", "nM", 94.9]
]}

Entry AGCCGAAAGGCGAGUGCUGUCACUCCGGAAGGAGCGCCCAAAAGGGCAGGUAGGUCGCCGGAGUGAUGUUCCGGUGCAGCACUCA [Omei KL Arginine A Exc B v3] , apparent KD of K4 kissing-loop reporter reported as 784

Entry "GGUAGCAUGAUGGAUACCAGUCCAAAUGGAGUGAUGUUCCAACAACAGGUUAGGCUGCUGGACCCUUGGCAGCCGUCAUGCUACC" , apparent KD of K4 kissing-loop reporter reported as 160

Entry "AAAAUAAACCAGUGAUGUUGGUAACCAGAUACCAGCGACGAAAGUCGCCCUUGGCAGCUGUGGACGUACAAAAUAAGUACGUCCU" , apparent KD of K4 kissing-loop reporter reported as 257

Entry GUCUCAAAAGAGGCAAGCACUAACGAGGACAAGGAUAUCAUCUCAAUGAGAAGGUGUCCUCGUCCUUAGUGAUGUUAAGGAGUGC [Omei KL FMN A SS E v5] , apparent KD of K4 kissing-loop reporter reported as 211

Entry UUUUUGGAGAAUUAUAGUGAUGUUAUGAAGGAGGAUAUCUGGAGAUGGAGAAGGCCUAGUGGCUCAGGGAUGGAGGGUGGGUGGG [ExFMNA.Y] , apparent KD of K4 kissing-loop reporter reported as 487

Entry CGAGUCAAUUCAGAUACCAGCCAAUUAAAGUCGAGUGAUGUUCGACAAUGAACAUCCAAAGGCCCUUGGCAGCUGAAUUGGGAAC [Same State Theophylline B GF 18] , apparent KD of K4 kissing-loop reporter reported as 114

Entry GAAUAAUAACAUGAGUGAUGUUCAUGUAAACGAGGACCGGUACGGCCGCCACUCGAACCUCAUGUAAGCCGUACCAAUAACAAUA [KL-XTryp-A4 #analogue] , apparent KD of K4 kissing-loop reporter reported as 112

Entry GGAGAGAACUGAAGGAGCGGCAAGAGAGAAGGAAAUAUAGUGAUGUUAUAUAAGAGAGAGAGCCAGGUAGGUCGCAGAGGGAGGA [ExArgB.A] , apparent KD of K4 kissing-loop reporter reported as 147

* * *

- Tested on: MS2 coat protein
- assayExplanation: apparent KD of MS2 coat protein; designed switch direction (-1 OFF switch, 1 ON switch): -1; higher = weaker reporter binding
- assayConditions: input ligand: FMN 200 uM
# Lookup of reported apparent KD of MS2 coat protein keyed by entry
Just the number in nM, nothing appended.

{"columns": ["sequenceData", "assayEndpoint", "measurementUnits", "readoutValue"],
 "data": [
  ["ACAUCGCCAGAAGUAGGUGACAUGAGGAUCACCCAUGUAGGCUAUUUUGCUCGUUUUAUUUCCACCCUAUUUGCUCC [Eternabot (L1) Solution 13] (Eterna round: R97, puzzle: Sensor, turn-off variant 1)", "apparent KD of MS2 coat protein", "nM", 146],
  ["AAAUUAGCAAGUAGGUCCGACAUGAGGAUCACCCAUGUUAUCUGAAAUAACGCAGCAUGAUUGUGCGCUCGUCUUAG [Sensor-V1 #7] (Eterna round: R97, puzzle: Sensor, turn-off variant 1)", "apparent KD of MS2 coat protein", "nM", 67.6],
  ["CAGUACUGAGGAUAUACAUGAGGAUCACCCAUGUGAACCAGCUAGGAAACUAGCAAAAGUAGAAGGCAGUACUG [828 mod 2 m7] (Eterna round: R97, puzzle: Exclusion 3)", "apparent KD of MS2 coat protein", "nM", 2260]
]}

Read the next record carefully.
Entry ACGUGGGCCCUUAGUGAACAUGAGGAUCACCCAUGUAACCACAAGGAUAUCUACGCCAGCACGCGAGAGAAGGUGUGAAAUAAU [Maorbetiza] (Eterna round: R96, puzzle: Exclusion NG 3) , apparent KD of MS2 coat protein reported as 132
